The measurements presented in this section are drawn from the DeepSol protein solubility set.

Test: soluble on expression in E. coli; label from the status in PepcDB or PDB records
result type: soluble on expression in E. coli

Below, each entry is followed by its recorded soluble on expression in E. coli result.
MGSDKIHHHHHHGAGVSTGSKLPDFRGKQGVWTLQAEGKHAEGVDFQVARPGVSHKSILALHKAGYIKTIITQNVDGLDRKVGIPVEDLIEVHGNLFLEVCQSCFSEYVREEIVMSVGLCPTGRNCEGNKRTGRSCRGKLRDATLDWDTEISLNHLDRIRKAWKQTSHLLCIGTSLEIIPMGSLPLDAKSKGIKTTTINYQETAHEKIVETAIHADVKLILYSLCNALGVNVDLGDDLPDEVPIPLKIS : not soluble
MDIQLVADGLQFPEGPIAMADGSVILTEIQGQRLTRVWPDGRKETVAETGGGPNGAAIGPDGAIYVTNNGGSFQFFEANGLNIPGPTPPTHTGGAIQRVDLKTGAITTLYTECDGKPLVGPNDLVFDKQGGFWFTDHGCSTPDGRKYGALYYALPDGSKITRWRDHFVSPNGVGLSPDEKTVYMADTMLGRLWSFDVASPGVLADAVPLLPGNVVCNLPGYQLLDSLAVEADGKVCVATIINGGITAFAPDGSTEHYAFPDVIVTNICFGGADMRDAWITASGTGKLYKARWPRPGLKLNFNGLEHHHHHH : soluble
MAHHHHHHMKVVEKQLSKKTLKVKKETEKNSTGFMEKKKINKKEKKIYKNNYNNDNIKEEEDILLNQDDFEKKKKKSLENKILLSKKLKEIKLQFKDDDTINNSKKNNWIERLDITSTEYYYLKKTELFGISESREKQLQNITHMNVIQALQKLQELNIKFNRPYDFLADMLKSDIHMEKIRQKILKEHEQAEVRENNKLKRINKKFLKKCGSQKIKSHKEALEKKQNLLKIDQLKKTNNLQNLNVQEFFIKHSKDHDYKAGKITAKKDMKHKKKNFNNKAKKDKGIKNKQIGKKTSINNKRKASSKNSRKSKKMKKKHKHRK : soluble
MTGSQKLILTGRPFLHHQGIINQVSTVTKVIHHELEVAASADDIWTVYSWPGLAKHLPDLLPGAFEKLEIIGDGGVGTILDMTFVPGEFPHEYKEKFILVDNEHRLKKVQMIEGGYLDLGVTYYMDTIHVVPTGKDSCVIKSSTEYHVKPEFVKIVEPLITTGPLAAMADAISKLVLEHKSKSNSDEIEAAIITVHHHHHH : soluble
MGSDKIHHHHHHMAWIKTVAFGDATGKLRKLYDRVTGPGGNVDNIMMAHSLRPHTMEGHMALYKNVLHHSGNELPKWVLEMIGVWVSSLNGCAYCVEHHFAGLKRLMRDDARAEAIRAAIEARDIKALPVRACEMAAMDYARKLTQAPTEMMAADLEPLRAEGLSDGHILEINQVVAYFAYANRTVLGLGCSTEGDVLGLSPGNSDDPTDWGHA : not soluble

Problem: Please indicate soluble on expression in E. coli recorded for LKQLLALDKNIERMECFDISHTQGEATVASCVVFDTEGPRPSEYRRFNIEGITPGDDYAAMEQAVTRRFKRLIDVQLLPDVLIIDGGKGQVSIVKRVLTSLGVEDITLLGVSKGPSRKAGWEKLILVNENREFVLPEDSKALHLLQHIRDEAHRFAI
Solution: not soluble

Problem: Please indicate soluble on expression in E. coli recorded for DALNRFHDQPLNETELLALMGEMEGKISGGIHYDNVAPCYLGGVQLMLEELGIISQEVPCFDEWYWVMAYPGIKVSTAEAREILPSQYRRQDIIAHGRHLAGFIHACHSGQPELAAKMIKDVIAEPYREKLLPGFANARQ
Solution: not soluble
